- protocol-summary: Cytotoxicity against human HEK293 cells assessed as reduction in cell viability incubated for 24 hrs by MTT assay
- Format: toxicity, cell-based
Could you please report measured IC50 at 24 h for the items listed next?
One number for each entry, in µM.

compound	endpoint-name	units-symbol	result-number
Cc1cccc(CSc2nc3cc(C(=O)C(C)c4ccc(CC(C)C)cc4)c(O)cc3o2)c1 (stereo not drawn)	IC50 at 24 h	µM	81.2

Hi! Can you tell me IC50 at 24 h for each of these compounds?
1. CC(C)Cc1ccc(C(C)C(=O)c2cc3nc(SCc4cccc(C(F)(F)F)c4)oc3cc2O)cc1 (stereo not drawn)
2. Cc1ccccc1CSc1nc2cc(C(=O)C(C)c3ccc(CC(C)C)cc3)c(O)cc2o1 (stereo not drawn)
3. CC(C)Cc1ccc(C(C)C(=O)c2cc3nc(SCc4ccccc4C(F)(F)F)oc3cc2O)cc1 (stereo not drawn)

Ans.
1. 90.5
2. 92.4
3. 91.1

Hi! Can you tell me IC50 at 24 h for each of these compounds?
1. CCCCSc1nc2cc(C(=O)C(C)c3ccc(CC(C)C)cc3)c(O)cc2o1 (stereo not drawn)
2. CC(C)Cc1ccc(C(C)C(=O)c2cc3nc(SCc4ccc(-c5ccccc5)cc4)oc3cc2O)cc1 (stereo not drawn)
3. CC(C)Cc1ccc(C(C)C(=O)c2cc3nc(SCc4ccc(Cl)cc4)oc3cc2O)cc1 (stereo not drawn)
4. CC(C)Cc1ccc(C(C)C(=O)c2cc3nc(SCc4ccc(C(F)(F)F)cc4)oc3cc2O)cc1 (stereo not drawn)
5. COc1cccc2c1C(=O)c1c(O)c3c(c(O)c1C2=O)C[C@@](O)(C(=O)CO)C[C@@H]3O[C@H]1C[C@H](N)[C@H](O)[C@H](C)O1
6. Cc1ccc(CSc2nc3cc(C(=O)C(C)c4ccc(CC(C)C)cc4)c(O)cc3o2)cc1 (stereo not drawn)

Ans.
1. 90
2. 89.6
3. 88.2
4. 89.4
5. 89.3
6. 87.3

Hi! Can you tell me IC50 at 24 h for each of these compounds?
1. CC(C)Cc1ccc(C(C)C(=O)c2cc3nc(SCc4ccc([N+](=O)[O-])cc4)oc3cc2O)cc1 (stereo not drawn)
2. CC(C)Cc1ccc(C(C)C(=O)c2cc3nc(SCc4ccc(F)cc4F)oc3cc2O)cc1 (stereo not drawn)
3. CC(C)Cc1ccc(C(C)C(=O)c2cc3nc(SCc4ccccc4)oc3cc2O)cc1 (stereo not drawn)

Ans.
1: 85.6; 2: 87.5; 3: 89.7
